compounds and their reported FGFR1, rIC50
biological target: FGFR1 (Homo sapiens, UniProt P11362); details: relative IC50: reported IC50 toward FGFR1 divided by next lowest reported IC50 to any gene target
Sequence (P11362 22-822, species assumed): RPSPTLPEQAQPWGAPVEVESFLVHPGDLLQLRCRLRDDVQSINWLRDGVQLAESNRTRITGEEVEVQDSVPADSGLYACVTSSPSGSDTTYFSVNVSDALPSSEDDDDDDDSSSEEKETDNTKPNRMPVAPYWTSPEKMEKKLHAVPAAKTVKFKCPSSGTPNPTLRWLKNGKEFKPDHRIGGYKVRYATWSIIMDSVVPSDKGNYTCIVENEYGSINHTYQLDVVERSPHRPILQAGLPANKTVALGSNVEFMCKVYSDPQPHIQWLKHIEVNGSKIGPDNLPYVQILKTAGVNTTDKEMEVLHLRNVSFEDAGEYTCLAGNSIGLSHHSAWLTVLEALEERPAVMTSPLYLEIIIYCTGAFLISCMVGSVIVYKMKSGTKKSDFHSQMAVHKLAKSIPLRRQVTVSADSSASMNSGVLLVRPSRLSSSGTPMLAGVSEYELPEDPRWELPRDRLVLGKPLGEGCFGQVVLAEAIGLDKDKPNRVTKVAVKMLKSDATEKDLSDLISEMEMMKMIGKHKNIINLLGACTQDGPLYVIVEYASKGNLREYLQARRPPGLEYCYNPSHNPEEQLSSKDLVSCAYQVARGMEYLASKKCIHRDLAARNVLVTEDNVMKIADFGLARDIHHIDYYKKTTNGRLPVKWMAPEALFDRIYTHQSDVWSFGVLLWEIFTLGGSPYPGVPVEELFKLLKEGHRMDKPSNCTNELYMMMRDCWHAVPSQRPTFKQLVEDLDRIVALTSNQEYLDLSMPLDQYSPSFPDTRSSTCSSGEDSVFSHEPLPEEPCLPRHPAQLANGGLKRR
outcomeMeasure: FGFR1, rIC50

[[record]]
compound = "CONC(=O)c1cc(Nc2ncnn3cc(-c4nnc(CC(C)C)o4)c(C(C)C)c23)c(F)cc1F [compound 11352215, reference compound]"
outcomemeasure = "FGFR1, rIC50"
valuemeasured = 3.1

[[record]]
compound = "C[C@@H](Oc1ccc2[nH]nc(-c3nc4cc(N5CCN(C)CC5)ccc4[nH]3)c2c1)c1c(Cl)cncc1Cl"
outcomemeasure = "FGFR1, rIC50"
valuemeasured = 0.4

[[record]]
compound = "Cc1cc2c(F)c(Oc3ncnn4cc(OC[C@@H](C)OC(=O)[C@@H](C)N)c(C)c34)ccc2[nH]1 [compound 11234052, Brivanib alaninate (Brivanib)]"
outcomemeasure = "FGFR1, rIC50"
valuemeasured = 1.1

[[record]]
compound = "Nc1c(-c2nc3ccccc3[nH]2)c(=O)[nH]c2ccccc12"
outcomemeasure = "FGFR1, rIC50"
valuemeasured = 3.0

[[record]]
compound = "CCS(=O)(=O)c1ccc2c(c1)C(=Cc1[nH]c3c(c1CN1CCOCC1)CCCC3)C(=O)N2"
outcomemeasure = "FGFR1, rIC50"
valuemeasured = 5.7

[[record]]
compound = "COC(=O)c1ccc2c(C(=Nc3ccc(CN(C)C(=O)N(C)C)cc3)c3ccccc3)c(O)[nH]c2c1"
outcomemeasure = "FGFR1, rIC50"
valuemeasured = 5.0

[[record]]
compound = "CONC(=O)c1cc(Nc2ncnn3cc(-c4nnc(C(F)(F)S(C)(=O)=O)o4)c(C(C)C)c23)c(F)cc1F"
outcomemeasure = "FGFR1, rIC50"
valuemeasured = 4.8

[[record]]
compound = "CONC(=O)c1cc(Nc2ncnn3cc(-c4nnc(C(F)(F)F)o4)c(C(C)C)c23)c(F)cc1F [compound 11488852, reference compound]"
outcomemeasure = "FGFR1, rIC50"
valuemeasured = 1.0

[[record]]
compound = "CONC(=O)c1cc(Nc2ncnn3cc(-c4nnc(CC(F)(F)F)o4)c(C(C)C)c23)c(F)cc1F [compound 11455031, reference compound]"
outcomemeasure = "FGFR1, rIC50"
valuemeasured = 1.8

[[record]]
compound = "O=C1c2ccc(O)c(O)c2OC[C@]1(O)Cc1ccc(O)c(O)c1"
outcomemeasure = "FGFR1, rIC50"
valuemeasured = 3.4

[[record]]
compound = "CCc1nnc(-c2cn3ncnc(Nc4cc(C(=O)NOC)c(F)cc4F)c3c2C(C)C)o1 [compound 11374515, reference compound]"
outcomemeasure = "FGFR1, rIC50"
valuemeasured = 2.6

[[record]]
compound = "COc1cc2c(Nc3ccc(C#N)cc3F)ncnc2cc1OCCn1ccnn1 [compound 5329034, Anilinoquinazoline deriv. 36, reference compound]"
outcomemeasure = "FGFR1, rIC50"
valuemeasured = 10.0

[[record]]
compound = "CONC(=O)c1cc(Nc2ncnn3cc(-c4nnc(CS(C)(=O)=O)o4)c(C(C)C)c23)c(F)cc1F [compound 10436729, reference compound]"
outcomemeasure = "FGFR1, rIC50"
valuemeasured = 2.2


----------
compounds and their reported VEGFR2, rIC50
target: VEGFR2 (Homo sapiens); details: relative IC50: reported IC50 toward VEGFR2 divided by next lowest reported IC50 to any gene target
outcomeMeasure: VEGFR2, rIC50

[[record]]
compound = "CONC(=O)c1cc(Nc2ncnn3cc(-c4nnc(N(C)C)o4)c(C(C)C)c23)c(F)cc1F [compound 9982235, reference compound]"
valuemeasured = 1.0

[[record]]
compound = "CONC(=O)c1cc(Nc2ncnn3cc(-c4ncc(C)o4)c(C(C)C)c23)c(F)cc1F [compound 10388612, reference compound]"
valuemeasured = 1.0

[[record]]
compound = "Nc1c(C(=O)c2cc3ccccc3[nH]2)cnn1-c1ccc2nc[nH]c2c1"
valuemeasured = 10.3

[[record]]
compound = "Cc1cc2cc(Nc3ncnn4cc(-c5nnc(C)o5)c(C(C)C)c34)cnc2[nH]1"
valuemeasured = 0.5

[[record]]
compound = "CONC(=O)c1cc(Nc2ncnn3cc(NC(=O)OCC4CCCO4)c(C(C)C)c23)c(F)cc1F (centres unmarked)"
valuemeasured = 1.0


----------
molecular target: FGFR1 (Homo sapiens); conditions: relative IC50: reported IC50 toward FGFR1 divided by next lowest reported IC50 to any gene target
outcomeMeasure: FGFR1, rIC50

[[record]]
molecule = "CNC(=O)c1cc(Oc2ccc(NC(=O)Nc3ccc(Cl)c(C(F)(F)F)c3)c(F)c2)ccn1"
valuemeasured = 3.0

[[record]]
molecule = "COc1ccc(N2Cc3cnc(Nc4ccccc4)nc3N([C@H]3CC[C@H](O)C3)C2=O)cc1"
valuemeasured = 2.5

[[record]]
molecule = "CONC(=O)c1cc(Nc2ncnn3cc(-c4nnc(C)o4)c(C(C)C)c23)c(F)cc1F [compound 10478569, reference compound]"
valuemeasured = 1.0

[[record]]
molecule = "NS(=O)(=O)c1ccc2c(c1)/C(=C/c1[nH]c3c(c1CCC(=O)O)CCCC3)C(=O)N2 [compound 5329165, Indolin-2-one deriv. 9c, reference compound]"
valuemeasured = 0.3

[[record]]
molecule = "Cc1cc2cc(Nc3ncnn4cc(-c5nnc(C)o5)c(C(C)C)c34)cnc2[nH]1"
valuemeasured = 3.1

[[record]]
molecule = "COC(=O)c1ccc2c(C(=Nc3ccc(-n4c(C)ccc4CN4CCN(C)CC4)cc3)c3ccccc3)c(O)[nH]c2c1 [compound 141475848, reference compound]"
valuemeasured = 3.5

[[record]]
molecule = "CONC(=O)c1cc(Nc2ncnn3cc(-c4nnco4)c(C(C)C)c23)c(F)cc1F [compound 11464544, reference compound]"
valuemeasured = 1.0


----------
molecules and their reported avg rIC50
tested on: VEGFR2 and FGFR1; test: Selection of compounds that selectively inhibit both VEGFR2 and FGFR1 (average relative IC50); assay type: biochemical;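 also: relative IC50 is the IC50 for VEGFR2 or FGFR1 divided by the next-lowest IC50 reported against any target gene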
outcomeMeasure: avg rIC50

[[record]]
molecule = "COC(=O)c1ccc2c(c1)NC(=O)/C2=C(\\Nc1ccc(N(C)C(=O)CN2CCN(C)CC2)cc1)c1ccccc1 [compound 135476717, Nintedanib esylate]"
system = "VEGFR2 and FGFR1"
valuemeasured = 3.5

[[record]]
molecule = "COc1ccc(N2Cc3cnc(Nc4ccc(F)cc4)nc3N([C@@H]3CC[C@@H](O)C3)C2=O)cc1 [compound 11396738, reference compound]"
system = "VEGFR2 and FGFR1"
valuemeasured = 1.2

[[record]]
molecule = "Oc1cc2c(cc1O)C1c3ccc(O)c(O)c3OCC1(O)C2 (centres unmarked)"
system = "VEGFR2 and FGFR1"
valuemeasured = 5.5

[[record]]
molecule = "Cc1nnc(-c2cn3ncnc(Nc4cnc5[nH]ccc5c4)c3c2C(C)C)o1"
system = "VEGFR2 and FGFR1"
valuemeasured = 1.2

[[record]]
molecule = "Cc1c[nH]c(/C=C2\\C(=O)Nc3ccccc32)c1CCC(=O)O"
system = "VEGFR2 and FGFR1"
valuemeasured = 1.1

[[record]]
molecule = "COC(=O)c1ccc2c(c1)NC(=O)/C2=C(\\Nc1ccc(CN2CCCCC2)cc1)c1ccccc1"
system = "VEGFR2 and FGFR1"
valuemeasured = 1.7

[[record]]
molecule = "Oc1ccc(C[C@@]2(O)COc3c(ccc(O)c3O)[C@H]2O)cc1O [compound 24949852, Epihematoxylol]"
system = "VEGFR2 and FGFR1"
valuemeasured = 3.7

[[record]]
molecule = "CONC(=O)c1cc(Nc2ncnn3cc(-c4nnc(C)[nH]4)c(C(C)C)c23)c(F)cc1F"
system = "VEGFR2 and FGFR1"
valuemeasured = 1.0


----------
target: VEGFR2 (Homo sapiens, UniProt P35968); conditions: relative IC50: reported IC50 toward VEGFR2 divided by next lowest reported IC50 to any gene target
Sequence (P35968 20-1356, species assumed): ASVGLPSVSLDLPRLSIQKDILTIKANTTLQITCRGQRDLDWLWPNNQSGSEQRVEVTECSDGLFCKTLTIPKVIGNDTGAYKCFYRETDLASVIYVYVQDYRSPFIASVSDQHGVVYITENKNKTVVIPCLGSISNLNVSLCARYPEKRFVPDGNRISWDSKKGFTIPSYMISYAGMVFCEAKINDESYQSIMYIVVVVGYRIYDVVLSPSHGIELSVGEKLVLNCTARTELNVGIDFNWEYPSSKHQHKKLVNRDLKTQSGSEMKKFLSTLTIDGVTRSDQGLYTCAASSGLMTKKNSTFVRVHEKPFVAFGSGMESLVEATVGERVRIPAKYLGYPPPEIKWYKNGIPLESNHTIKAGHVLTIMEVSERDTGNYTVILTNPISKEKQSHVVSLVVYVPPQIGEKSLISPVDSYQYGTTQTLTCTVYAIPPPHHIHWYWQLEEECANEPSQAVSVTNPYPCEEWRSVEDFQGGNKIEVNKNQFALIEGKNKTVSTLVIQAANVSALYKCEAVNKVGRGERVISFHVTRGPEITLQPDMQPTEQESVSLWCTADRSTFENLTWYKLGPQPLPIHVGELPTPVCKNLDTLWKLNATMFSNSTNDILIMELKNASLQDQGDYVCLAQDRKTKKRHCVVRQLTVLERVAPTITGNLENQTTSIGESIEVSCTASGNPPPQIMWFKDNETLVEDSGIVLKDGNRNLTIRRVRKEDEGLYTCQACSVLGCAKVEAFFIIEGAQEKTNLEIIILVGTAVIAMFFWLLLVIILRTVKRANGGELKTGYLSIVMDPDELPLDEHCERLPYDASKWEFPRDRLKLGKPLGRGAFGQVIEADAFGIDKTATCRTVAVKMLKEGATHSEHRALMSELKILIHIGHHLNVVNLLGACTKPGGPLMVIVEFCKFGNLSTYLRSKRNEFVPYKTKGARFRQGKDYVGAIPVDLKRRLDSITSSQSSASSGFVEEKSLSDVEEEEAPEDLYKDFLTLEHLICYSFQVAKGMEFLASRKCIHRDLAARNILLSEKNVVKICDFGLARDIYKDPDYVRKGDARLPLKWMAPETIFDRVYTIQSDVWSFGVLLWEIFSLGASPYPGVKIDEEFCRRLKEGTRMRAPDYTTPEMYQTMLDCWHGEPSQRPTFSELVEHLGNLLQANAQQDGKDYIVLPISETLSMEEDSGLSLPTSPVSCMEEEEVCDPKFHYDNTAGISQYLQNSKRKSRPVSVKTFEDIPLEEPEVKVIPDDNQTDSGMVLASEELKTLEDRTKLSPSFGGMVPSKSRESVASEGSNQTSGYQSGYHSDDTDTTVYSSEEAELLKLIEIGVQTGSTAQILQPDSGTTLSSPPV
outcomeMeasure: VEGFR2, rIC50

[[record]]
molecule = "Nc1c(-c2nc3ccccc3[nH]2)c(=O)[nH]c2ccccc12"
valuemeasured = 5.8

[[record]]
molecule = "CONC(=O)c1cc(Nc2ncnn3cc(-c4nnc(C(F)(F)F)o4)c(C(C)C)c23)c(F)cc1F [compound 11488852, reference compound]"
valuemeasured = 1.1

[[record]]
molecule = "COC(=O)c1ccc2c(C(=Nc3ccc(-n4c(C)ccc4CN4CCN(C)CC4)cc3)c3ccccc3)c(O)[nH]c2c1 [compound 141475848, reference compound]"
valuemeasured = 0.7


----------
molecular target: FGFR1 (Homo sapiens, UniProt P11362)
FGFR1, rIC50 vs 2: less than gives true; not less than gives false.

[[record]]
structurestring = "CNC(=O)c1cccc2cc(Oc3ccnc4cc(OCC5(N)CC5)c(OC)cc34)ccc12"
categorylabel = "false"

[[record]]
structurestring = "CNC(=O)c1cccc2cc(Oc3ccnc4cc(OCC5(N)CC5)c(OC)cc34)ccc12.Cl"
categorylabel = "false"

[[record]]
structurestring = "CONC(=O)c1cc(Nc2ncnn3cc(-c4nnc(C)[nH]4)c(C(C)C)c23)c(F)cc1F"
categorylabel = "true"

[[record]]
structurestring = "COc1cc2c(cc1F)C(c1ccccc1Cl)=NC1=C(C)NNC1=N2"
categorylabel = "false"

[[record]]
structurestring = "Cc1c[nH]c(/C=C2\\C(=O)Nc3ccccc32)c1CCC(=O)O"
categorylabel = "true"

